- system tested: Tyrosinase (Agaricus bisporus)
- procedure details: Inhibition of mushroom tyrosinase at 15 uM
quantity kind: inhibition (%)

>>> observed("COc1ccc2nc(SCC(=O)Nc3ccc4c(c3)OCCO4)[nH]c2c1")
43
>>> observed("CC(=O)Nc1ccc(Nc2nc(-c3c(C)nc4ccc(C)cn34)cs2)cc1")
46
>>> observed("O=S(=O)(c1ccc(NC(=S)Nc2ccccc2)cc1)N1CCCCC1")
48
>>> observed("CCCCCOc1ccc(NC2=C(N3CCCC3)C(=O)c3ccccc3C2=O)cc1")
51
>>> observed("C/C(=N\\NC(=S)Nc1cccc(C)c1)c1cccc(N)c1")
52
>>> observed("Cc1ccccc1NC(=O)CSC(N)=O")
66
>>> observed("C/C(=N\\NC(=N)SC1CC(=O)N(c2ccc(Cl)cc2)C1=O)c1cccs1 (stereo not drawn)")
40
>>> observed("S=c1[nH]c(-c2ccc3c(c2)OCO3)cn1-c1ccc(Oc2ccccc2)cc1")
54

----------
- system tested: UniProt:O42713
- Sequence (O42713 whole entry): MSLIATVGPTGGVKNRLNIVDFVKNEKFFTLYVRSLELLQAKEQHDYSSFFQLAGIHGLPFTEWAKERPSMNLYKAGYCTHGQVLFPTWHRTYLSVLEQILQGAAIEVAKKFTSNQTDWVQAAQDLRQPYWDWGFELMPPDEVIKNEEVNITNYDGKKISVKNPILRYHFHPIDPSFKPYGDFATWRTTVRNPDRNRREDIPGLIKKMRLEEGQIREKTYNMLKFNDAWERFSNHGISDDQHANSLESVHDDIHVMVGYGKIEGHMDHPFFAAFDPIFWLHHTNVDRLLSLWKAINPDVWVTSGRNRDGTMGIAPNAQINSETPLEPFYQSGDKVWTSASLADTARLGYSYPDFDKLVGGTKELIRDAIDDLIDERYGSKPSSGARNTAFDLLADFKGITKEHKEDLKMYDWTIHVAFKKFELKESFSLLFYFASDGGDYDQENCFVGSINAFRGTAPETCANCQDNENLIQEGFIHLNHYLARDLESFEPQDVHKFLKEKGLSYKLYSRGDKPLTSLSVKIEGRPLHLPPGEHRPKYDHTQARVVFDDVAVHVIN
- procedure details: Inhibition of mushroom tyrosinase at 1.7 uM
quantity kind: inhibition (%)

>>> observed("CC(=O)Nc1ccc(Nc2nc(-c3c(C)nc4ccc(C)cn34)cs2)cc1")
36
>>> observed("CCCCCOc1ccc(NC2=C(N3CCCC3)C(=O)c3ccccc3C2=O)cc1")
47
>>> observed("S=c1[nH]c(-c2ccc3c(c2)OCO3)cn1-c1ccc(Oc2ccccc2)cc1")
41
>>> observed("Cc1ccccc1NC(=O)CSC(N)=O")
47
>>> observed("C/C(=N\\NC(=N)SC1CC(=O)N(c2ccc(Cl)cc2)C1=O)c1cccs1 (stereo not drawn)")
25

a. O=S(=O)(c1ccc(NC(=S)Nc2ccccc2)cc1)N1CCCCC1
b. COc1ccc2nc(SCC(=O)Nc3ccc4c(c3)OCCO4)[nH]c2c1
Qu. Two entries are listed, a and b . Which one carries the higher inhibition? Your answer should be the label of the entry you select.
Ans. b
(b: 40%, a: 23%)
